# credit: patent US20150368209A1

tested on: M. tuberculosis H37Rv; experiment: Resazurin reduction microtiter assay (REMA), growth inhibition and MIC determination; format: cell-based; settings: Mycobacterium tuberculosis, 168 h, at 20 uM compound, 7 days at 37° C., read-out: H37Rv inh % at 20 uM
Measured inhibition at 20 µM by item

compound_smiles: Cc1noc(NS(=O)(=O)c2ccc(Nc3cc(-c4cc(Cl)ccc4Cl)ncn3)cc2)c1C
inhibition at 20 µM, %: 100
//
compound_smiles: COc1cccc(Cl)c1-c1cc(Nc2ccc(S(=O)(=O)Nc3onc(C)c3C)cc2)ncn1
inhibition at 20 µM, %: 102
//
compound_smiles: Cc1noc(NS(=O)(=O)c2ccc(Nc3cc(-c4ccccc4OC(F)(F)F)ncn3)cc2)c1C
inhibition at 20 µM, %: 102
//
compound_smiles: Cc1noc(NS(=O)(=O)c2ccc(Nc3cc(-c4ccc(F)cc4F)ncn3)cc2)c1C
inhibition at 20 µM, %: -3.7
//
compound_smiles: Cc1noc(NS(=O)(=O)c2ccc(Nc3cc(-c4ccccc4OC(C)C)ncn3)cc2)c1C
inhibition at 20 µM, %: -23
//
compound_smiles: Cc1noc(NS(=O)(=O)c2ccc(Nc3cc(-c4ccc(F)cc4OC(C)C)ncn3)cc2)c1C
inhibition at 20 µM, %: -1.4
//
compound_smiles: COc1ccccc1-c1cc(Nc2ccc(S(=O)(=O)Nc3nnc(C)s3)cc2)ncn1
inhibition at 20 µM, %: 100
//
compound_smiles: COc1cccc(-c2cc(Nc3ccc(S(=O)(=O)Nc4onc(C)c4C)cc3)ncn2)c1OC
inhibition at 20 µM, %: -9.8
